The reported measurements were obtained from patent US12612412B2.

Test system: HMPV clinical isolate TN/1501/A1
Assay: HMPV antiviral assay Method-B (clinical isolate TN/1501/A1 in LLC-MK2 cells, ATP-Lite readout)
Assay type: cell-based, Human metapneumovirus (HMPV)
Conditions: human metapneumovirus, LLC-MK2, 144 h, hMPV WT1501 (clinical isolate TN/1501/A1), 6 days
measure: EC50

For orientation, consider the following solved cases.
NC(=O)[C@]1(CF)COc2c1cc([C@@](O)(CNC(=O)c1cc(OC3CC3)c3ncccc3c1)C1CC1)nc2-c1ccc(F)cc1
> 500 nM
COc1cc(C(=O)NC[C@](O)(c2cc3c(c(-c4ccc(F)c(Cl)c4F)n2)OC[C@]3(C)C(N)=O)C2(F)CC2)cc2cn(C3CC3)nc12
< 500 nM
COc1cc(C(=O)NC[C@](O)(c2cc3c(c(-c4cc(Cl)ccc4F)n2)OC[C@]3(C)C(N)=O)C2CC2)cc2cn(C3(Cl)CC3)nc12
< 500 nM
COc1ncc2cc(C(=O)NC[C@](O)(c3cc4c(c(-c5ccc(F)cc5)n3)OC[C@]4(C)C(N)=O)C(F)(F)F)cc(OC)c2n1
> 500 nM

For every record below, what is its EC50?
1. COc1cc(C(=O)NC[C@](O)(c2cc3c(c(-c4cc(Cl)c(F)cc4F)n2)OC[C@]3(C)C(N)=O)C(F)(F)F)cc2cc(Cl)c(C)nc12
2. Cc1nc2c(OC3CC3)cc(C(=O)NC[C@](O)(c3cc4c(c(-c5ccc(F)c(F)c5Cl)n3)OC[C@]4(C)C(N)=O)C(F)(F)F)cc2cc1Cl
3. COc1cc(C(=O)NC[C@](O)(c2cc3c(c(-c4cnc(C#N)c(Cl)c4)n2)OC[C@]3(C)C(N)=O)C(F)(F)F)cc2cn(C3CC3)nc12
4. COc1cc(C(=O)NC[C@](O)(c2cc3c(c(-c4ccc(Cl)cc4F)n2)OC[C@]3(C)C(N)=O)C2CC2)cc2cn(C3(F)CC3)nc12
5. COc1cc(C(=O)NC[C@](O)(c2cc3c(c(C4=CCC(F)(F)CC4)n2)OC[C@]3(C)C(N)=O)C(F)(F)F)cc2cn(C3CC3)nc12
6. COc1cc(C(=O)NC[C@](O)(c2cc3c(c(-c4ccc(F)c(Cl)c4)n2)OC[C@]3(C(N)=O)C(F)F)C(F)(F)F)cc2sc(C)nc12
7. COc1cc(C(=O)NC[C@](O)(c2cc3c(c(-c4cc(Cl)ccc4F)n2)OC[C@]3(C)C(N)=O)C2CC2)cc2cn(C3CC3)nc12

(A)
1: < 500 nM; 2: < 500 nM; 3: > 500 nM; 4: < 500 nM; 5: > 500 nM; 6: > 500 nM; 7: < 500 nM

====

I'd appreciate it if you could supply pEC50 values for the items below.
Tested on: HMPV clinical isolate TN/1501/A1
Experiment: HMPV antiviral assay Method-B (clinical isolate TN/1501/A1 in LLC-MK2 cells, ATP-Lite readout)
Assay type: cell-based, Human metapneumovirus (HMPV)
Conditions: human metapneumovirus, LLC-MK2, 144 h, hMPV WT1501 (clinical isolate TN/1501/A1), 6 days
pEC50: −log10 of the molar value.

Below are some molecules; for each one, tell me its pEC50.
1. COc1cc(C(=O)NC[C@](O)(c2cc3c(c(-c4ccc(F)c(Cl)c4F)n2)OC[C@]3(C)C(N)=O)C2CC2)cc2cc(Br)c(Cl)nc12
2. COc1cc(C(=O)NC[C@](O)(c2cc3c(c(-c4ccc(F)c(Cl)c4)n2)OC[C@]3(C)C(N)=O)C2CC2)ccc1OC1CC1
3. COc1cc(C(=O)NC[C@](O)(c2cc3c(c(-c4ccc(F)c(C(F)(F)F)c4)n2)OC[C@]3(C)C(N)=O)C(F)(F)F)cc2cn(C3CC3)nc12

(A)
> 6.30
> 6.30
> 6.30

====

Tested on: HMPV clinical isolate TN/1501/A1
Test: HMPV antiviral assay Method-B (clinical isolate TN/1501/A1 in LLC-MK2 cells, ATP-Lite readout)
Type: cell-based, Human metapneumovirus (HMPV)
Details: human metapneumovirus, LLC-MK2, 144 h, hMPV WT1501 (clinical isolate TN/1501/A1), 6 days
measure: EC50

// for each compound in input: emit EC50
1. Cc1cnc2c(OC(F)F)cc(C(=O)NC[C@](O)(c3cc4c(c(-c5ccc(F)c(Cl)c5)n3)OC[C@]4(C)C(N)=O)C3CC3)cc2c1 [Example 496]
2. COc1cc(C(=O)NC[C@](O)(c2cc3c(c(-c4ccc(-c5ccccc5)cc4)n2)OC[C@]3(C)C(N)=O)C(F)(F)F)cc2cn(C3CC3)nc12 [Example 1249]

(A)
1. < 500 nM
2. > 500 nM

Give one value of EC50 per listed compound.
1. COc1cc(C(=O)NC[C@](O)(c2cc3c(c(-c4ccc(C5(C#N)CC5)cc4)n2)OC[C@]3(C)C(N)=O)C(F)(F)F)cc2cn(C3CC3)nc12 [Example 981]
2. COc1cc(C(=O)NC[C@](O)(c2cc3c(c(-c4ccc(F)cc4)n2)OC[C@]3(C)C(N)=O)C2CC2)cc2cc(Br)cnc12 [Example 1125]
3. C[C@]1(C(N)=O)COc2c1cc([C@@](O)(CNC(=O)c1cc(Cl)c3nn(C4CC4)cc3c1)C1(F)CC1)nc2-c1ccc(F)cc1 [Example 755]
4. COc1cc(C(=O)NC[C@](O)(c2cc3c(c(-c4cc(Cl)c(F)c(Cl)c4)n2)OC[C@]3(C)C(N)=O)C(F)(F)F)cc2cn(C3CC3)nc12 [Example 669]
5. COc1cc(C(=O)NC[C@](O)(c2cc3c(c(-c4ccc5c(c4)OC(F)(F)O5)n2)OC[C@]3(C)C(N)=O)C(F)(F)F)cc2cc(Br)c(C)nc12 [Example 770]
6. Cc1cnc2c(OC(F)F)cc(C(=O)NC[C@](O)(c3cc4c(c(-c5ccc(F)c(Cl)c5)n3)OC[C@]4(C)C(N)=O)C(F)(F)F)cc2c1 [Example 494]
7. COc1cc(C(=O)NC[C@](O)(c2cc3c(c(-c4ccc(F)cc4Cl)n2)OC[C@]3(C)C(N)=O)C2CC2)cc2cn(C3(Cl)CC3)nc12 [Example 844]
8. Cc1cnc2c(OC(F)F)cc(C(=O)NC[C@](O)(c3cc4c(c(-c5ccc(F)cc5)n3)OC[C@]4(C(N)=O)C(F)F)C(F)(F)F)cc2c1 [Example 1006]

(A)
["> 500 nM", "< 500 nM", "< 500 nM", "> 500 nM", "< 500 nM", "< 500 nM", "< 500 nM", "> 500 nM"]

For each of the compounds below, note its EC50.
1. Cc1cnc2c(Cl)cc(C(=O)NC[C@](O)(c3cc4c(c(-c5ccc(F)c(Br)c5F)n3)OC[C@]4(C)C(N)=O)C3CC3)cc2c1 [Example 1084]
2. COc1cc(C(=O)NC[C@](O)(c2cc3c(c(-c4cccc(-c5ccccc5)c4)n2)OC[C@]3(C)C(N)=O)C(F)(F)F)cc2cn(C3CC3)nc12 [Example 1251]

(A)
1: < 500 nM; 2: > 500 nM

====

For each record, write down the corresponding pEC50.
Test system: HMPV clinical isolate TN/1501/A1
Assay: HMPV antiviral assay Method-B (clinical isolate TN/1501/A1 in LLC-MK2 cells, ATP-Lite readout)
Type: cell-based, Human metapneumovirus (HMPV)
Conditions: human metapneumovirus, LLC-MK2, 144 h, hMPV WT1501 (clinical isolate TN/1501/A1), 6 days
pEC50: −log10 of the molar value.

Known pEC50 results, listed for orientation:
COc1cc(C(=O)NC[C@](O)(c2cc3c(c(-c4ccc(F)cc4)n2)OC[C@]3(C)C(N)=O)C2(F)CC2)cc2cn(C(F)F)nc12
> 6.30
COc1cc(C(=O)NC[C@](O)(c2cc3c(c(-c4ccc(F)cc4Cl)n2)OC[C@]3(C)C(N)=O)C(F)(F)F)cc2cc(Cl)c(C)nc12
> 6.30

Could you tell me pEC50 for each of these compounds? They are listed below.
1. C[C@]1(C(N)=O)COc2c1cc([C@@](O)(CNC(=O)c1cc(Cl)c3nn(C4CC4)cc3c1)C1CC1)nc2-c1c(F)ccc(Cl)c1F
2. COc1cc(C(=O)NC[C@](O)(c2cc3c(c(-c4ccc(F)c(C(F)(F)F)c4)n2)OC[C@]3(C)C(N)=O)C2CC2)cc2cn(C(F)F)nc12
3. C[C@]1(C(N)=O)COc2c1cc([C@@](O)(CNC(=O)c1cc(O)c3nn(C4CC4)cc3c1)C(F)(F)F)nc2-c1ccc(F)cc1
4. COc1cc(C(=O)NC[C@](O)(c2cc3c(c(-c4ccc(F)c(F)c4Cl)n2)OC[C@]3(C)C(N)=O)C2(F)CC2)cc2cn(C(F)F)nc12

(A)
["> 6.30", "> 6.30", "< 6.30", "> 6.30"]
